- target.under.test: human NTCP (Homo sapiens, UniProt Q14973)
- Sequence (Q14973 1-349): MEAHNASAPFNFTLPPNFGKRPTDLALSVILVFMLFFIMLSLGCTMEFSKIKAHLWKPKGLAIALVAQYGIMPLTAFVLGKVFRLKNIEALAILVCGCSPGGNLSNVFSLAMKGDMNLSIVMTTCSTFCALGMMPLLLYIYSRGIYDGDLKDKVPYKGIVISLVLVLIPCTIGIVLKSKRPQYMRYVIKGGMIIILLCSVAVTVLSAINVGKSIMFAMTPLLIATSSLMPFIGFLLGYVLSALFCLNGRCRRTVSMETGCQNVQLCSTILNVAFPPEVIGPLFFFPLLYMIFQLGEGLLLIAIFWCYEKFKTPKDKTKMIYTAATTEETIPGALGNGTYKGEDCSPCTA
- assay.procedure: Screening taurocholate uptake assay (96-well, [14C]taurocholate, 10 µM drug)
- details: Prestwick library screen, taurocholate uptake, 10 µM drug
Where a name gives a salt, the structure may show the parent alone.
value.kind: B-score functional assay
Write the number on its own, no unit after it.

Consider the worked cases shown below.
CC1NC(=O)NC1=O (stereo not drawn) [Methylhydantoin-5-(L)]: 0.737
NC12CC3CC(CC(C3)C1)C2.O=C(O)/C=C/C(=O)O [Adamantamine fumarate]: -0.004
CN1CCC(=C2c3ccccc3CCc3sccc32)CC1.O=C(O)CC(O)C(=O)O [Pizotifen malate]: 0.156
C[C@](N)(Cc1ccc(O)c(O)c1)C(=O)O [Methyldopa (L,-)]: 1.009
CCC1(c2ccccc2)NC(=O)N(C)C1=O (stereo not drawn) [Mephenytoin]: 0.862

Problem: Read off the recorded B-score functional assay for CC(C)[N+](C)(CCC(C(N)=O)(c1ccccc1)c1ccccc1)C(C)C [Isopropamide iodide]
Solution: 0.036

Problem: Read off the recorded B-score functional assay for NCCc1cc[nH]n1 [Betazole hydrochloride]
Solution: 0.019

Problem: Read off the recorded B-score functional assay for O=c1n(CCCN2CCN(c3cccc(Cl)c3)CC2)nc2ccccn12 [Trazodone hydrochloride]
Solution: 0.169

Problem: Read off the recorded B-score functional assay for CC(C(=O)O)c1ccc2c(c1)Cc1cccnc1O2 (stereo not drawn) [Pranoprofen]
Solution: -0.016

* * *

- target.under.test: human NTCP (Homo sapiens, UniProt Q14973)
- Sequence (Q14973 1-349): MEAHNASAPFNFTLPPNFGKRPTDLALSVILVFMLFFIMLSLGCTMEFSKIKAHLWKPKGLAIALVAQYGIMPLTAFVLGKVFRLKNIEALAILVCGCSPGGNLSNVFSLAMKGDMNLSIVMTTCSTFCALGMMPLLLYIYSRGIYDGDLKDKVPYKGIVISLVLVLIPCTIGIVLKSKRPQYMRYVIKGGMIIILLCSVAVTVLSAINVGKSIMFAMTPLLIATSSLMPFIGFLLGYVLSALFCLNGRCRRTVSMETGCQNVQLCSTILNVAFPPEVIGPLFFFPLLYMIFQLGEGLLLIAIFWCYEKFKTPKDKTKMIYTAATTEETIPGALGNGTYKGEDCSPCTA
- assay.procedure: Screening taurocholate uptake assay (96-well, [14C]taurocholate, 10 µM drug)
Structures can show the parent of a compound that is named as a salt.
value.kind: B-score functional assay
Write the number on its own, no unit after it.

Cc1cccc(C)c1N=C1NCCCS1: -0.697
Oc1c(Cl)cc(Cl)c(Cl)c1Cc1c(O)c(Cl)cc(Cl)c1Cl: -8.47
CCCSc1ccc2nc(NC(=O)OC)[nH]c2c1: -0.13
CC1COc2c(N3CCN(C)CC3)c(F)cc3c(=O)c(C(=O)O)cn1c23 (stereo not shown): 1.32
CC(C)c1cccc(C(C)C)c1O: -4.147
CC(N)C(O)c1ccccc1 (stereo not shown) [Phenylpropanolamine hydrochloride]: 0.305

Problem: Read off the recorded B-score functional assay for O=P1(N(CCCl)CCCl)NCCCO1 (stereo not shown) [Cyclophosphamide]
Solution: 0.493

Problem: Read off the recorded B-score functional assay for Cc1c(Cl)cccc1Nc1ncccc1C(=O)O.NCCCC[C@H](N)C(=O)O [Clonixin Lysinate]
Solution: -1.707

Problem: Read off the recorded B-score functional assay for C[C@]12Cc3c[nH]nc3C[C@@H]1CC[C@@H]1[C@@H]2CC[C@@]2(C)[C@H]1CC[C@]2(C)O
Solution: -1.951

Problem: Read off the recorded B-score functional assay for C=CCC1(CC(C)C)C(=O)NC(=O)NC1=O
Solution: -0.027

Problem: Read off the recorded B-score functional assay for C[C@]12CC[C@H]3[C@@H](CCC4=CC(=O)CC[C@@H]43)[C@@H]1CC[C@@H]2O
Solution: 0.05

Problem: Read off the recorded B-score functional assay for CCC(=O)O[C@H]1CC[C@H]2[C@@H]3CCC4=CC(=O)CC[C@]4(C)[C@H]3CC[C@]12C [Testosterone propionate]
Solution: -0.451

Problem: Read off the recorded B-score functional assay for COc1cc2c(c(OC)c1OC)-c1ccc(OC)c(=O)cc1[C@@H](NC(C)=O)CC2
Solution: -0.631

Problem: Read off the recorded B-score functional assay for CN(C)c1ccc(O)c2c1C[C@H]1C[C@H]3[C@H](N(C)C)C(O)=C(C(N)=O)C(=O)[C@@]3(O)C(O)=C1C2=O [Minocycline hydrochloride]
Solution: 0.089

Problem: Read off the recorded B-score functional assay for O=C(NCC(O)CO)c1c(I)c(C(=O)NCC(O)CO)c(I)c(N(CCO)C(=O)CO)c1I (stereo not shown)
Solution: 1.843

Problem: Read off the recorded B-score functional assay for CNCCC(Oc1ccccc1OC)c1ccccc1 (stereo not shown) [Nisoxetine hydrochloride]
Solution: -0.598

Problem: Read off the recorded B-score functional assay for CCN(CC)CCCC(C)Nc1ccnc2cc(Cl)ccc12 (stereo not shown) [Chloroquine diphosphate]
Solution: 0.222

Problem: Read off the recorded B-score functional assay for C[C@]12CC[C@@H](O)C[C@H]1CC[C@@H]1[C@@H]2CC[C@]2(C)C(=O)CC[C@@H]12 [3-alpha-Hydroxy-5-beta-androstan-17-one]
Solution: -2.764

Problem: Read off the recorded B-score functional assay for CNCC[C@@H](Oc1cccc2ccccc12)c1cccs1.Cl [(R)-Duloxetine hydrochloride]
Solution: 1.079

Problem: Read off the recorded B-score functional assay for COc1cccc2c1C(=O)c1c(O)c3c(c(O)c1C2=O)C[C@@](O)(C(=O)CO)C[C@@H]3O[C@H]1C[C@H](N)[C@H](O)[C@H](C)O1 [Doxorubicin hydrochloride]
Solution: 0.02

Problem: Read off the recorded B-score functional assay for CCOc1ccccc1OCC1CNCCO1 (stereo not shown) [Viloxazine hydrochloride]
Solution: -1.513

Problem: Read off the recorded B-score functional assay for CC(C)Cn1cnc2c(N)nc3ccccc3c21
Solution: -0.019

Problem: Read off the recorded B-score functional assay for CN(C)CCCN1c2ccccc2Sc2ccccc21 [Promazine hydrochloride]
Solution: 0.194

Problem: Read off the recorded B-score functional assay for C[C@]12CCC(=O)C(O)=C1CC[C@@H]1[C@@H]2CC[C@]2(C)C(=O)CC[C@@H]12
Solution: -0.613
